Biological target: Gonadotropin-releasing hormone receptor (Mus musculus, UniProt Q01776)
Sequence (Q01776 whole entry): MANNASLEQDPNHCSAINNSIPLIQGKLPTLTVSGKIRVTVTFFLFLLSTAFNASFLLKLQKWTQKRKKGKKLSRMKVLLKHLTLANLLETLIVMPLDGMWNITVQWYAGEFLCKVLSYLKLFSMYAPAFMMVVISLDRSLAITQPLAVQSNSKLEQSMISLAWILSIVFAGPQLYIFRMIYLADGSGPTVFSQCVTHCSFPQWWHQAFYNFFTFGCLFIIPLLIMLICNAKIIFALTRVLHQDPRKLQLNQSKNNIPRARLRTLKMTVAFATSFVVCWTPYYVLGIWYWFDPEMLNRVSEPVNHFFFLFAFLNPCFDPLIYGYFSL
readoutLabel: pKi
One number for each entry, as −log10 of the molar value.

Query :: Report pKi for COc1cc(OC)c(NC(=O)c2ccc(Cc3cc4c(cc3C)C(C)(C)CCC4(C)C)o2)c(OC)c1 please.
Result :: 8.66
